Data provenance is the supplement of paper PMC3334620.

System: Abf1 (UniProt P14164)
Sequence: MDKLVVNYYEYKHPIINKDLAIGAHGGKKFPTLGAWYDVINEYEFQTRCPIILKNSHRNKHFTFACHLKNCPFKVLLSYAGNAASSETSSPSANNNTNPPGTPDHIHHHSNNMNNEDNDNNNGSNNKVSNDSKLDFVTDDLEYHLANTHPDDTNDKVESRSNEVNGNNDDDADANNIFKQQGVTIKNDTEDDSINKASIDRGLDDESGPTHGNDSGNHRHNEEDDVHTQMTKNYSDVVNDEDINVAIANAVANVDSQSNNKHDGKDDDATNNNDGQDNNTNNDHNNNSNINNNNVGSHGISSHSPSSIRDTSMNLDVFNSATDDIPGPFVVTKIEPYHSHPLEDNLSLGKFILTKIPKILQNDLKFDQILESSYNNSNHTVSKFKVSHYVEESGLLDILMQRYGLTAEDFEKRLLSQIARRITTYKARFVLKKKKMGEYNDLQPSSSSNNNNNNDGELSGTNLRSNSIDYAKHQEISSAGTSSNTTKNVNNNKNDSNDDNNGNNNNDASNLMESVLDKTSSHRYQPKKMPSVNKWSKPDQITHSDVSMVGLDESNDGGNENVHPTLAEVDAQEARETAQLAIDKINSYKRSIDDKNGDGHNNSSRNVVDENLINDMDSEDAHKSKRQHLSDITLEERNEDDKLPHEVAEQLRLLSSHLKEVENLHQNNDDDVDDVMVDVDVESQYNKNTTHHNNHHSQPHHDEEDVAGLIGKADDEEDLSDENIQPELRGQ
Method: PBM E-score (8-mer binding enrichment) (E-score (-0.5 to 0.5)); higher = stronger / more preferred TF binding
Condition context: protein concentration: 200 nM; construct: GST-full length
Whole data set: some 33,000 sequences, median “E-score (-0.5 to 0.5)” near -0.015, cut for the highest 2% near 0.3. The entries come from a sample that favours the highest values as a whole.
Label met when PBM E-score is at or above 0.1; anything below gets not met.

Solved cases (5 shown):
# Chain, Category label
data = [
    ("AGATTTCA", "not met"),
    ("ATTTCCGG", "not met"),
    ("CACCCTGG", "not met"),
    ("ACAACGCT", "not met"),
    ("ATATGATG", "met"),
]

Ask | Tell me whether PBM E-score is at least 0.1 here: "CAGTCGAG"
Reply | not met

Ask | Hi team, for "AGTGAAGA" , is the recorded PBM E-score at or above 0.1?
Reply | met

###

System: Abf1 (UniProt P14164)
Sequence: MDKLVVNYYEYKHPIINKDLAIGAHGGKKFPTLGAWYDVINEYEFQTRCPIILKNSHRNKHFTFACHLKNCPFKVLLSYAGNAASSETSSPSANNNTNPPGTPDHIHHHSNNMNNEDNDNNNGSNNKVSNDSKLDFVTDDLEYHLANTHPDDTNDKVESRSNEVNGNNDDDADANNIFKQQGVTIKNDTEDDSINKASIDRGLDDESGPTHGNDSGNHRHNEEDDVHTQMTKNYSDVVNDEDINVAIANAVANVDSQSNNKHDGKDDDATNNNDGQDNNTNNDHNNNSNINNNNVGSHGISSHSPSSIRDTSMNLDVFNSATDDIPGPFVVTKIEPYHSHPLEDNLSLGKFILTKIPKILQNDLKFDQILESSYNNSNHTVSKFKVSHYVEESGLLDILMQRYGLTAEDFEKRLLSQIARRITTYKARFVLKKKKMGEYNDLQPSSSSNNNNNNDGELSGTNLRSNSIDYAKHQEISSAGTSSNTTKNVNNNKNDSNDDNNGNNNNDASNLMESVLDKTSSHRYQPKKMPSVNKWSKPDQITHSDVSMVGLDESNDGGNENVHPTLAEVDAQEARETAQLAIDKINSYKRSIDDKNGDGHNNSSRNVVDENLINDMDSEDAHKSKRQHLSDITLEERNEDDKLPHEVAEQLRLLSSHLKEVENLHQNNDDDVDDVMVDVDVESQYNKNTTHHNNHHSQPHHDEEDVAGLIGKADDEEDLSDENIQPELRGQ
Method: PBM E-score (8-mer binding enrichment) (E-score (-0.5 to 0.5)); higher = stronger / more preferred TF binding
Condition context: protein concentration: 200 nM; construct: GST-full length
The full ranking holds about 33,000 sequences; the median of “E-score (-0.5 to 0.5)” is about -0.015, and the highest 2% start at about 0.3. The sample as a whole holds a higher share of the highest values than the screen did.
Collected PBM E-score values appear next to each entry.
The answer should be written as a number, with no unit following it.

Example results:
# Chain, System, PBM E-score
records = [
    ("AATTCTGT", "Abf1 (UniProt P14164)", -0.144),
    ("TCGCATAA", "Abf1 (UniProt P14164)", 0.205),
    ("GAAGTGAA", "Abf1 (UniProt P14164)", 0.064),
    ("AACACTGC", "Abf1 (UniProt P14164)", -0.155),
]

Ask | # return recorded PBM E-score for input "ACCCAGAA"
Reply | -0.0336

Ask | Supply measured PBM E-score of "CTTAGTGC" in your reply.
Reply | -0.0935

Ask | Kindly indicate its recorded PBM E-score. Item: "ATCACTGG"
Reply | 0.332

Ask | Identify measured PBM E-score associated with "CAAAGTGA"
Reply | 0.28

Ask | Item "CCCACAAC" : provide PBM E-score
Reply | -0.0362

Ask | Quote PBM E-score reported for "CCGGAAGA" please.
Reply | 0.0618

Ask | For the sequence "GAAGTGAC" , give its reported PBM E-score.
Reply | 0.411
